- assay notes: physchem
- Format: physicochemical
readout: pKa
// response body must contain only the number

INPUT: Sample C[Si]1(C)C2=C(F)C(=O)C=CC2=C(c2ccc(C(=O)Nc3ccc(NCCN(Cc4ccccn4)Cc4ccccn4)cc3)cc2C(=O)O)c2ccc(O)c(F)c21 [ZnTM-1] — what was its pKa?
OUTPUT: 7.2
